# test.description: Acute toxicity / median lethal dose (LD50) determination, subcutaneous injection
# Format: in vivo, mice
# condition.details: both sexes, Kunming, mouse, in vivo, sc; mice, subcutaneous, survival within 24 h, Probit regression; >X = no death or toxic symptoms at X mg/kg
LD50 for assorted compounds

compound	LD50
CCO[C@]12C[C@H](OC)[C@@]3(OC(=O)c4ccco4)CC(C1[C@H]3OC(=O)c1ccc(OC)cc1)[C@]13C4[C@@H](OC)C2[C@H]1N(CC)C[C@]4(COC)CC[C@@H]3OC (some centres unmarked)	56.4 mg/kg
CCO[C@]12C[C@H](OC)[C@@]3(OC(=O)c4ccco4)CC(C1[C@H]3OC(=O)c1ccco1)[C@]13C4[C@@H](OC)C2[C@H]1N(CC)C[C@]4(COC)CC[C@@H]3OC (some centres unmarked)	> 600 mg/kg
CCO[C@]12C[C@H](OC)[C@@]3(OC(=O)c4ccc(F)cc4)CC(C1[C@H]3OC(=O)c1ccc(OC)cc1)[C@]13C4[C@@H](OC)C2[C@H]1N(CC)C[C@]4(COC)CC[C@@H]3OC (some centres unmarked)	> 100 mg/kg
CCO[C@]12C[C@H](OC)[C@@]3(OC(=O)c4ccc(Cl)cc4)CC(C1[C@H]3OC(=O)c1ccc(OC)cc1)[C@]13C4[C@@H](OC)C2[C@H]1N(CC)C[C@]4(COC)CC[C@@H]3OC (some centres unmarked)	76.6 mg/kg
CCN1C[C@]2(COC)CC[C@H](OC)[C@@]34C5C[C@]6(OC(=O)c7cccnc7)[C@@H](OC)C[C@@](OC(C)=O)(C5[C@H]6OC(=O)c5ccc(OC)cc5)C([C@H](OC)C23)[C@@H]14 (some centres unmarked)	41.2 mg/kg

---

// reported RAW cell viability per item
# Test system: RAW 264.7 cells
# test.description: MTT assay, viability of RAW 264.7 cells
# Assay type: cell-based
# condition.details: compound diluted to 30 mol/L (so in the source), 12 h
quantity.measured: RAW cell viability (ns %)

molecule	data.value
CCO[C@]12C[C@H](OC)[C@@]3(OC(=O)c4ccc([N+](=O)[O-])cc4)CC(C1[C@H]3OC(=O)c1ccc([N+](=O)[O-])cc1)[C@]13C4[C@@H](OC)C2[C@H]1N(CC)C[C@]4(COC)CC[C@@H]3OC (stereo partly drawn) [Compound 38]	99.37
CCO[C@]12C[C@H](OC)[C@@]3(OC(=O)c4ccc(F)cc4)CC(C1[C@H]3OC(=O)c1ccc(OC)cc1)[C@]13C4[C@@H](OC)C2[C@H]1N(CC)C[C@]4(COC)CC[C@@H]3OC (stereo partly drawn) [Compound 60]	96.09
CCO[C@]12C[C@H](OC)[C@@]3(OC(=O)CC(C)(C)C)CC(C1[C@H]3OC(=O)c1ccc(OC)cc1)[C@]13C4[C@@H](OC)C2[C@H]1N(CC)C[C@]4(COC)CC[C@@H]3OC (stereo partly drawn) [Compound 90]	101.74
CCO[C@]12C[C@H](OC)[C@@]3(OC(=O)C4CCOCC4)CC(C1[C@H]3OC(=O)c1ccc(OC)cc1)[C@]13C4[C@@H](OC)C2[C@H]1N(CC)C[C@]4(COC)CC[C@@H]3OC (stereo partly drawn) [Compound 24]	94.97
CCO[C@]12C[C@H](OC)[C@@]3(OC(=O)c4cccs4)CC(C1[C@H]3OC(=O)c1cccs1)[C@]13C4[C@@H](OC)C2[C@H]1N(CC)C[C@]4(COC)CC[C@@H]3OC (stereo partly drawn) [Compound 17]	87.25
Cc1ccc(-c2cc(C(F)(F)F)nn2-c2ccc(S(N)(=O)=O)cc2)cc1 [Celecoxib, reference compound]	93.09
CCO[C@]12C[C@H](OC)[C@@]3(OC(=O)c4ccco4)CC(C1[C@H]3OC(=O)c1ccc(OC)cc1)[C@]13C4[C@@H](OC)C2[C@H]1N(CC)C[C@]4(COC)CC[C@@H]3OC (stereo partly drawn) [Compound 15]	104.18
CCCC(=O)O[C@]12CC3C([C@H]1OC(=O)c1ccc(OC)cc1)[C@](OC(C)=O)(C[C@@H]2OC)C1[C@H](OC)C2[C@@]4(COC)CC[C@H](OC)[C@@]32[C@@H]1N(CC)C4 (stereo partly drawn) [Compound 79]	101.29

Data provenance is patent US20260022098A1.
